# assayOverview: Thermal stability: residual activity after incubation at 60° C. for one hour
# Format: biochemical
# protocolConditions: crude recombinant enzyme; after incubation at 60° C. for 1 hour
readout: Residual activity (%)

{"molecule": "Ketose 3-epimerase mutant 15: amino acid-substituted mutant of SEQ ID NO: 1 (protein, Arthrobacter histidinolovorans) MKIGCHGLVWTGRFDAEGIRYSVQKTKEAGFDLIEFPLMDPFSFDVATAKSALAEHGLSVSASLGLSEATDVSSEDPAIVKAGEELLNRALDVLAELGATEFCGVIYSAMKKYMEPATEQGLSNSKAAVGRVVDRAAGLGINVSLEVVNRYETNVLNTGRQALSYLSDVKRPNLGVHLDTYHMNIEESDMFSPVLDTAEVLKYVHIGESHRGYLGTGSVDFDNFFKALGRIGYDGPVVFESFSSAVVAPDLSRMLGIWRNLWADNEELGAHANAFIRDKLTAIKTIELH", "readout": "Residual activity (%)", "observed": "89.3%"}
